Assay: Antiproliferative activity against human HuH7 cells after 72 hrs by XTT assay
Assay type: functional, cell-based
Conditions: Huh-7, 72 h
recordedMetric: pIC50
In simple prose, pIC50 is minus the logarithm base ten of a concentration in moles per litre.

>>> df
                            structurestring  resultvalue
0  Cl.c1ccc2c(c1)/C(=N\OCCN1CCCC1)c1nc3ccccc3nc1-2         5.19
1  C(=N\OCCN1CCCC1)/c1cccc2nc3c(nc12)-c1ccccc1/C3=N\OCCN1CCCC1.Cl         6.11
2  CN(C)CCCO/N=C1\c2ccccc2-c2nc3c(C(=O)NCCN4CCOCC4)cccc3nc21.Cl         5.23
3  CN(C)CCCO/N=C1\c2ccccc2-c2nc3c(CN(C)C)cccc3nc21.Cl         6.12
4  CN(C)CCCO/N=C1\c2ccccc2-c2nc3ccccc3nc21.Cl         5.27
5  CN(C)CCCO/N=C1\c2ccccc2-c2nc3c(C(=O)NCCN4CCCC4)cccc3nc21.Cl         6.09
6  CN(C)CCCO/N=C1\c2ccccc2-c2nc3c(C(=O)NCCN(C)C)cccc3nc21.Cl         6.08
7  CN(C)CCCO/N=C/c1cccc2nc3c(nc12)-c1ccccc1/C3=N\OCCCN(C)C.Cl         5.14

Please turn your attention to the following entry.
Entry CN(C)CCCNC(=O)c1cccc2nc3c(nc12)-c1ccccc1C3=O , pIC50 reported as 5.11

* * *

Tested on: Escherichia coli
Test: Binding affinity to Escherichia coli negative supercoiled pBR322 DNA at 10 uM after 12 hrs by ethidium bromide staining based agarose gel electrophoresis
Active and inactive are the calls of the source. The calls are words filed in the database; no cut-off is given here.
Hi! Could you answer with just one of these? true = active, false = inactive

Solved cases (2 shown):
>>> df
                            structurestring    cat
0   O=C1c2ccccc2-c2nc3c(CN4CCCCC4)cccc3nc21  false
1  Cc1cccc2nc3c(nc12)-c1ccccc1/C3=N\OCCCN(C)C.Cl  false

### Prompt Look up the recorded call for CN(C)CCCO/N=C1\c2ccccc2-c2nc3ccccc3nc21.Cl in this test.
### Response false

### Prompt How was CN(C)CCCO/N=C1\c2ccccc2-c2nc3c(CN(C)C)cccc3nc21.Cl classified in this test?
### Response true

### Prompt For O=C1c2ccccc2-c2nc3c(C(=O)O)cccc3nc21 , which call appears in the assay record?
### Response false

### Prompt Per the records of this test, what outcome belongs to C(=N\OCCN1CCCC1)/c1cccc2nc3c(nc12)-c1ccccc1/C3=N\OCCN1CCCC1.Cl ?
### Response true

### Prompt Test call for this compound, please: Cl.c1ccc2c(c1)/C(=N\OCCN1CCCC1)c1nc3ccccc3nc1-2
### Response false

### Prompt I would be grateful if you could indicate the recorded call for CN(C)CCCO/N=C1\c2ccccc2-c2nc3c(CN4CCOCC4)cccc3nc21.Cl .
### Response false

### Prompt Please indicate how the test categorized CN(C)CCCO/N=C1\c2ccccc2-c2nc3c(C(=O)NCCN(C)C)cccc3nc21.Cl .
### Response true

* * *

Target: DNA topoisomerase 1 (Homo sapiens) (UniProt P11387)
Sequence (P11387 whole entry): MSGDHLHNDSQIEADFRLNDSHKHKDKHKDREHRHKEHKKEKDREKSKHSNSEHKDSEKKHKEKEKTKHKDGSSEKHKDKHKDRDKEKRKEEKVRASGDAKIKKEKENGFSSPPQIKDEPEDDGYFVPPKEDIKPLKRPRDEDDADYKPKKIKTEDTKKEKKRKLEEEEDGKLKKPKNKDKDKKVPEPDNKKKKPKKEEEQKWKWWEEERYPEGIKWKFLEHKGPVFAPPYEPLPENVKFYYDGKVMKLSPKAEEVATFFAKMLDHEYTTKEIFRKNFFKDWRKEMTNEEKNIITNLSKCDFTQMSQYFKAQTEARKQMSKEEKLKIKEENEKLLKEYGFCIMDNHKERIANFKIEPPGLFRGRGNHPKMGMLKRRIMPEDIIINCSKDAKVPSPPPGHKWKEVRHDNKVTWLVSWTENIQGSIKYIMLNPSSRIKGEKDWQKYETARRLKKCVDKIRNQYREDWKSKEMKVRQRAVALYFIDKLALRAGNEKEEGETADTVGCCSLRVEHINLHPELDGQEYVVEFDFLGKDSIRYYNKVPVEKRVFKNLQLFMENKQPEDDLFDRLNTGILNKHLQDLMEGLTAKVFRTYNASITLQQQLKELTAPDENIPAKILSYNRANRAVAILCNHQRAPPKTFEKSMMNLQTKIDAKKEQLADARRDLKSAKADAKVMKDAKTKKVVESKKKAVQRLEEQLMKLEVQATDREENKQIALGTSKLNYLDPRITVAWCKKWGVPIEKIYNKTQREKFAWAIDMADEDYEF
Experiment: Inhibition of human DNA topoisomerase 1-mediated relaxation of supercoiled pBR322 DNA at 10 uM after 30 mins by ethidium bromide staining based agarose gel electrophoresis
The source made the active and inactive calls. The calls are words filed in the database; no cut-off is given here.
Return exactly one item of active, inactive

Look over these answered cases.
                            structurestring       cat
0  Cl.c1ccc2c(c1)/C(=N\OCCN1CCCC1)c1nc3ccccc3nc1-2    active
1  CN(C)CCCO/N=C/c1cccc2nc3c(nc12)-c1ccccc1/C3=N\OCCCN(C)C.Cl    active
2    O=C1c2ccccc2-c2nc3c(CN4CCCC4)cccc3nc21  inactive

### Prompt Which outcome did this test record for the compound CN(C)CCCO/N=C1\c2ccccc2-c2nc3c(C(=O)NCCN4CCCC4)cccc3nc21.Cl ?
### Response active

### Prompt How was CN(C)CCCO/N=C1\c2ccccc2-c2nc3c(CN(C)C)cccc3nc21.Cl classified in this test?
### Response active

### Prompt In this assay, the call recorded for O=C1c2ccccc2-c2nc3c(C(=O)NCCN4CCCC4)cccc3nc21 was what?
### Response active

### Prompt # outcome recorded in this test, key = CN(C)CCCO/N=C1\c2ccccc2-c2nc3c(CN4CCOCC4)cccc3nc21.Cl
### Response inactive

### Prompt State the result this test recorded for CN(C)CCCNC(=O)c1cccc2nc3c(nc12)-c1ccccc1/C3=N\OCCCN(C)C.Cl .
### Response active

### Prompt Record lookup: outcome of this test for CN(C)CCCO/N=C1\c2ccccc2-c2nc3c(C(=O)NCCN(C)C)cccc3nc21.Cl ?
### Response active

### Prompt Dear all, I need the recorded test outcome for CN(C)CCCO/N=C1\c2ccccc2-c2nc3c(C(=O)NCCN4CCOCC4)cccc3nc21.Cl , thank you.
### Response active
